Recorded IC50, one value per entry.
- study-target: DGKζ (Homo sapiens (Human), UniProt Q13574)
- Sequence (Q13574 other isoform, or with tags, fused parts or gaps): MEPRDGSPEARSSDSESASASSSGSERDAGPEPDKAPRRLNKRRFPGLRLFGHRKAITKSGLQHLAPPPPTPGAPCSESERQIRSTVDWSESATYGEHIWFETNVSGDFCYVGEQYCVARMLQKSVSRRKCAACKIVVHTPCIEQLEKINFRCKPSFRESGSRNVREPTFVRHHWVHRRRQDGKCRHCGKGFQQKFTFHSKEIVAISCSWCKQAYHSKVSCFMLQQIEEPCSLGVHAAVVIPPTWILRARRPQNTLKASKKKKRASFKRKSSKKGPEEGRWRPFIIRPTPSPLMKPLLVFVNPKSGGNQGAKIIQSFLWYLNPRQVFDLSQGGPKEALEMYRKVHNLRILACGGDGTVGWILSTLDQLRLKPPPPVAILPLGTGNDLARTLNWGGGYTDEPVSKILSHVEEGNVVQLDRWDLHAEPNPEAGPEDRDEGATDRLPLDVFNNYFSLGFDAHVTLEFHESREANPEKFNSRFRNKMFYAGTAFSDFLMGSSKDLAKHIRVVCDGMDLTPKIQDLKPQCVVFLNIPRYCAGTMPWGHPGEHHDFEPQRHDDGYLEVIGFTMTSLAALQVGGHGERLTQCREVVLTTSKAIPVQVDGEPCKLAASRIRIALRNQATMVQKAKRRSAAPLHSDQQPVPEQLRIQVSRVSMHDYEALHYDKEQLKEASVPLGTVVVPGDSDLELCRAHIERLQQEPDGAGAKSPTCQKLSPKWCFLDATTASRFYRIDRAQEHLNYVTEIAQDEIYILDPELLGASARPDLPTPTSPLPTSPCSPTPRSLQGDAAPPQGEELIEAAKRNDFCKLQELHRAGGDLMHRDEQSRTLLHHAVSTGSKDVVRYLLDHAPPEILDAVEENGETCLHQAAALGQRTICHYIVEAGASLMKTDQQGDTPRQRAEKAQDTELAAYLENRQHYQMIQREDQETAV

>  <compound>
CC[C@H]1CN(C(C)c2ccc(N)nc2)[C@H](CC)CN1c1cc(=O)n(C)c2cn(CC#N)nc12 (single isomer, unassigned) [Compound A187a]

>  <relation-operator>
>

>  <IC50 [nM]>
10000

$$$$
>  <compound>
CC#CCn1cc2c(n1)c(N1C[C@@H](CC)N(C(C)c3ccc4scnc4c3)C[C@@H]1C)cc(=O)n2C (stereo partly drawn)

>  <relation-operator>
=

>  <IC50 [nM]>
859

$$$$
>  <compound>
CC[C@H]1CN(C(C)c2ccn3nc(C)cc3n2)[C@H](CC)CN1c1cc(=O)n(C)c2cn(CC#N)nc12 (single isomer, unassigned) [Compound A152a]

>  <relation-operator>
=

>  <IC50 [nM]>
3090

$$$$
>  <compound>
CC[C@H]1CN(C(C)c2ccn3nc(C)cc3n2)[C@H](CC)CN1c1cc(=O)n(C)c2cn(CC#N)nc12 (single isomer, unassigned) [Compound A152b]

>  <relation-operator>
=

>  <IC50 [nM]>
65.5

$$$$
>  <compound>
CC[C@H]1CN(C(C)c2ccn3nccc3c2)[C@H](CC)CN1c1nc(=O)n(C)c2cn(CC#N)nc12 (single isomer, unassigned) [Compound A159b]

>  <relation-operator>
=

>  <IC50 [nM]>
1120

$$$$
>  <compound>
CC[C@H]1CN(C(C)c2ccc(NC(C)=O)c(O)c2F)[C@H](CC)CN1c1cc(=O)n(C)c2cn(CC#N)nc12 (single isomer, unassigned) [Compound A87a]

>  <relation-operator>
=

>  <IC50 [nM]>
2820

$$$$
>  <compound>
Cc1cc2nc(C(C)N3C[C@H](C)N(c4cc(=O)n(C)c5cn(CC#N)nc45)C[C@H]3C)ccc2s1 (single isomer, unassigned) [Compound A155a]

>  <relation-operator>
=

>  <IC50 [nM]>
20

$$$$
>  <compound>
CC#CCn1cc2c(n1)c(N1C[C@@H](CC)N(C(C)c3ccc4nc(C)sc4n3)C[C@@H]1CC)cc(=O)n2C (stereo partly drawn)

>  <relation-operator>
=

>  <IC50 [nM]>
118

$$$$
>  <compound>
CC[C@H]1CN(C(C)c2ccc(CN3CCC(OC)C3)cc2)[C@H](CC)CN1c1cc(=O)n(C)c2cn(CC#N)nc12 (single isomer, unassigned) [Compound A203b]

>  <relation-operator>
=

>  <IC50 [nM]>
7610

$$$$
>  <compound>
CC[C@@H]1CN(c2cc(=O)n(C)c3cn(CC#N)nc23)[C@@H](C)CN1C(C)c1ccc2nc(C)sc2c1F (single isomer, unassigned) [Compound A104b]

>  <relation-operator>
=

>  <IC50 [nM]>
220

$$$$
>  <compound>
CC[C@H]1CN(C(C)c2nc(C)c(C)s2)[C@H](CC)CN1c1cc(=O)n(C)c2cn(CC#N)nc12 (single isomer, unassigned) [Compound A35b]

>  <relation-operator>
=

>  <IC50 [nM]>
2420

$$$$
>  <compound>
CC[C@H]1CN(C(C)c2ccc3scnc3c2F)[C@H](CC)CN1c1cc(=O)n(C)c2cn(CC#N)nc12 (single isomer, unassigned) [Compound A110b]

>  <relation-operator>
=

>  <IC50 [nM]>
1720

$$$$
>  <compound>
CC[C@H]1CN(C(C)c2ccc3nc(OCCF)sc3n2)[C@H](CC)CN1c1cc(=O)n(C)c2cn(CC#N)nc12 (single isomer, unassigned) [Compound A147a]

>  <relation-operator>
=

>  <IC50 [nM]>
152

$$$$
>  <compound>
CC[C@H]1CN(C(C)c2ccc(CN3CCC(OC)CC3)cc2)[C@H](CC)CN1c1cc(=O)n(C)c2cn(CC#N)nc12 (single isomer, unassigned) [Compound A189a]

>  <relation-operator>
=

>  <IC50 [nM]>
2190

$$$$
>  <compound>
CC[C@H]1CN(C(C)c2ccn3nc(C)c(F)c3c2)[C@H](CC)CN1c1cc(=O)n(C)c2cn(CC#N)nc12 (single isomer, unassigned) [Compound A169b]

>  <relation-operator>
=

>  <IC50 [nM]>
9280

$$$$
>  <compound>
CC[C@H]1CN(C(C)c2ccc(OC3CC3)nc2)[C@H](CC)CN1c1cc(=O)n(C)c2cn(CC#N)nc12 (stereo partly drawn)

>  <relation-operator>
=

>  <IC50 [nM]>
202

$$$$
>  <compound>
CC[C@H]1CN(C(C)c2ccc3nc(OC4CC4)sc3n2)[C@H](CC)CN1c1cc(=O)n(C)c2cn(CC#N)nc12 (single isomer, unassigned) [Compound A146b]

>  <relation-operator>
=

>  <IC50 [nM]>
104

$$$$
>  <compound>
CC[C@H]1CN(C(C)c2ccc3nc(OCCF)sc3n2)[C@H](CC)CN1c1cc(=O)n(C)c2cn(CC#N)nc12 (single isomer, unassigned) [Compound A147b]

>  <relation-operator>
=

>  <IC50 [nM]>
1510

$$$$
